- study target: huPD1-ECD_Fc-knob/hole (P1AD9704) (human)
- experiment notes: SPR, 25C
measured metric: pKd
Scale note: pKd = -log10(concentration in M).

Recorded pKd, per entry:
P1AI0358 PD1-1030-VH_I58T_P61A (antibody, V domains shown) VH: EVQLLESGGGLVQPGGSLRLSCAASGFSFSSYTMSWVRQAPGKGLEWVATISGGGRDTYYADSVKGRFTISRDNSKNTLYLQMNSLRAEDTAVYYCVLLTGRVYFALDSWGQGTLVTVSS VL: DIVMTQSPDSLAVSLGERATINCKASESVDTSDNSFIHWYQQKPGQSPKLLIYRSSTLESGVPDRFSGSGSGTDFTLTISSLQAEDVAVYYCQQNYDVPWTFGQGTKVEIKR | 9.52
P1AI0360 PD1-1030-VH_Y60F_D62E (antibody, V domains shown) VH: EVQLLESGGGLVQPGGSLRLSCAASGFSFSSYTMSWVRQAPGKGLEWVATISGGGRDIYFPESVKGRFTISRDNSKNTLYLQMNSLRAEDTAVYYCVLLTGRVYFALDSWGQGTLVTVSS VL: DIVMTQSPDSLAVSLGERATINCKASESVDTSDNSFIHWYQQKPGQSPKLLIYRSSTLESGVPDRFSGSGSGTDFTLTISSLQAEDVAVYYCQQNYDVPWTFGQGTKVEIKR | 9.52

Now let's try a different one.
The recorded pKd for entry P1AI0359 PD1-1030-VH_P61A (antibody, V domains shown) VH: EVQLLESGGGLVQPGGSLRLSCAASGFSFSSYTMSWVRQAPGKGLEWVATISGGGRDIYYADSVKGRFTISRDNSKNTLYLQMNSLRAEDTAVYYCVLLTGRVYFALDSWGQGTLVTVSS VL: DIVMTQSPDSLAVSLGERATINCKASESVDTSDNSFIHWYQQKPGQSPKLLIYRSSTLESGVPDRFSGSGSGTDFTLTISSLQAEDVAVYYCQQNYDVPWTFGQGTKVEIKR equals 9.70

Hey, just so you know, these numbers are from patent US20260345804.
